Give measured Soft Agar Growth [IC50, µg/ml] for each item. Keep answers brief.
biological target: c-Met expressed on the surface of human A549 lung carcinoma cells (human, UniProt P08581 25-1390); experiment: cell-based or functional assay
Sequence (P08581 25-1390): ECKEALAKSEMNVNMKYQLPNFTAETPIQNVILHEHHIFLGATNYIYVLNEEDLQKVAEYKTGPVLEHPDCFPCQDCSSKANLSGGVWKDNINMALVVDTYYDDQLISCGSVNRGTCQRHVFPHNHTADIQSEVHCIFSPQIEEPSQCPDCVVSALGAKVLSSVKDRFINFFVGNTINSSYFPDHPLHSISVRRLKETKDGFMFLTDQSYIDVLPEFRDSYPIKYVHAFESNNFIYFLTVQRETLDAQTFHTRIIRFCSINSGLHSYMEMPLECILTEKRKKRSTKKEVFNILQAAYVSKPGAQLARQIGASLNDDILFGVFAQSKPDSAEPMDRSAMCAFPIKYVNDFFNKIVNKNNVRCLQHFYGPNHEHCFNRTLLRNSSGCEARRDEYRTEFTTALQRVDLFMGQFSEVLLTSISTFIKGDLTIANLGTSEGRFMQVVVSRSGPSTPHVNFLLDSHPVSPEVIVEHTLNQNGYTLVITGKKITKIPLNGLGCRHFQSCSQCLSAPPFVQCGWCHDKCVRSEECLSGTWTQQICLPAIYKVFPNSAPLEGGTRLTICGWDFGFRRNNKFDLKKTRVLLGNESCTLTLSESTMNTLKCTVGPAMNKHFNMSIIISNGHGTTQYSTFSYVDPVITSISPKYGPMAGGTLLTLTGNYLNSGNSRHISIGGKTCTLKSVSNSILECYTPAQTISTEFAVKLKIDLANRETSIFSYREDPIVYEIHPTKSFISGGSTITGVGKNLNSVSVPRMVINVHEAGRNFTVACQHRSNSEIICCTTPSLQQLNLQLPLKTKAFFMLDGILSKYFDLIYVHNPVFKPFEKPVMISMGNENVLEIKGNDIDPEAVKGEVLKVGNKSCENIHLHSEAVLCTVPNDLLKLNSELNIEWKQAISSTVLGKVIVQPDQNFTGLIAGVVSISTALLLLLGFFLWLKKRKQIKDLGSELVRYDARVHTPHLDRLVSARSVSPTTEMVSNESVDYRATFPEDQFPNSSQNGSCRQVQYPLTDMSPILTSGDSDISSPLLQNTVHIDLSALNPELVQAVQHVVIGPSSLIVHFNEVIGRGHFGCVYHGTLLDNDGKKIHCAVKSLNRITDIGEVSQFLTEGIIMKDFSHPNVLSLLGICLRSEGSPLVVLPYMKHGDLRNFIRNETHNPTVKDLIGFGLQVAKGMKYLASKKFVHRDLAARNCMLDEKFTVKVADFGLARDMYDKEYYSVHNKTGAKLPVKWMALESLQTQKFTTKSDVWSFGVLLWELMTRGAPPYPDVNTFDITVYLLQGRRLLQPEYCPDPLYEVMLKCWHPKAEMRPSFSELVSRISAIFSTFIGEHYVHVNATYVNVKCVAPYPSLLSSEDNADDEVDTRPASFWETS
One number for each entry, in µg/mL.

Guide cases for Soft Agar Growth [IC50, µg/ml], answers given:
The reported value for anti-c-Met monoclonal antibody 9.1.2 (antibody, V domains shown, Human IgG2 kappa; also called hybridoma 9.1.2 (LN 15884); PTA-5027) VH: QVQLQESGPGLVKPSQTLSLTCTVSGGSISSGGYYWSWIRQHPGKGLEWIGYIYYSGSTYYNPSLKSRVTISVDTSKNQFSLKLSSVTAADTAVYYCARDGPLGYCSSTSCPVTGEYYYYGMDVWGQGTTVTVSS VL: EIVLTQSPGTLSLSPGERATLSCRASQSVSNNYLAWYQQKPGQAPRLLIFGASSRATGIPDRFSGSGSGTDFTLTISRLEPEDFAVYYCQQYDISPMYSFGQGTKLEMKR in terms of Soft Agar Growth [IC50, µg/ml] is 5.5

The reported value for anti-c-Met monoclonal antibody 8.70.2 (antibody, V domains shown, Human IgG2 kappa; also called hybridoma 8.70.2 (LN 15885); PTA-5028) VH: QLQLQESGPGLVKPSETLSLTCTVSGGSISSSSYYGGWIRQPPGKGLDWIGSIYYSGNTYYNPSLKSRVTISVDTSKNQFSLKLSSVTAADTAVYYCARHSWDYFDYWDQGTLVTVSS VL: DIQMTQSPSSVSASVGDRVTITCRASQGISSWLAWYQQKPGKAPKLLIYAASSLQSGVPSRFSGSGSGTDFTLTISSLQSEDFATYYCQQANSFPITFGPGTKVEIKR in terms of Soft Agar Growth [IC50, µg/ml] is 25

The reported value for anti-c-Met monoclonal antibody 13.3.2 (antibody, human IgG2, kappa, V domains shown, Human IgG2 kappa from XenoMouse hybridoma; The variable positions X2, X4, X6, X8 correspond to positions 42, 97, 14 (heavy) and 91 (light), where position one is the N-terminal amino acid; these numbers may not count on the entry with its leader; also called PTA-5026) VH: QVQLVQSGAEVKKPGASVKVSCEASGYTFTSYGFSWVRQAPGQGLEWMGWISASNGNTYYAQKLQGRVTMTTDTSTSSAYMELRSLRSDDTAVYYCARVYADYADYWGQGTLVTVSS VL: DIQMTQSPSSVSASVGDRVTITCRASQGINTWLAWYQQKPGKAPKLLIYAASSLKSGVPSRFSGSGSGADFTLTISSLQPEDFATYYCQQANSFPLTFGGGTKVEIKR in terms of Soft Agar Growth [IC50, µg/ml] is 8.5

# context switch: different binder, same Soft Agar Growth [IC50, µg/ml]
The reported value for anti-c-Met monoclonal antibody 8.90.3 (antibody, V domains shown, Human IgG2 kappa) VH: EVQLVESGGGLVQPGGSLRLSCAASGFTFSRYSMNWVRQAPGKGLEWVSYISSRSSTIYYADSVKGRFTMSRDNAKNSLYMQMNSLRDEDTAVYYCGYGDYDYFDYWGQGTLVTVSS VL: DIQMTQSPSSVSASVGDRVIITCRASQGISSWLAWYQQKPGKAPKLLIYAASSLKSGVPSRFSGSGSGTDFTVTISSLQPEDFATYYCQQSNSLPWTFGQGTKVEIKR in terms of Soft Agar Growth [IC50, µg/ml] is 10.5
